SPOT peptide array binding signal intensity values, listed per item
System under test: SpMyo1
Procedure details: SPOT peptide array binding signal intensity (averaged, normalized) (arbitrary units (background-subtracted, floor 0; scale differs between SH3 domains)); higher = stronger binding of the SH3 domain to the peptide
Observable: SPOT peptide array binding signal intensity

{"Binder": "GLRRARYKFPGQQKI", "Comparative sign": "=", "Assay result": 1}
{"Binder": "KRKRRLPVSEDTNTK", "Comparative sign": "=", "Assay result": 3.5}
{"Binder": "RKRRTHLRLPLIRSN", "Comparative sign": "=", "Assay result": 9}
{"Binder": "LTRRFPFLFPFDTRM", "Comparative sign": "=", "Assay result": 7}
{"Binder": "QQNRPLPQLPNRNNR", "Comparative sign": "=", "Assay result": 45.8}
{"Binder": "NRPAIRIPSLKKPAL", "Comparative sign": "≤", "Assay result": 0}
{"Binder": "IKTRSVPKIPSIESV", "Comparative sign": "=", "Assay result": 11.5}
{"Binder": "PPIPNAPLSPAPAVP", "Comparative sign": "=", "Assay result": 946}
{"Binder": "FSRRQSMDIPSKNRN", "Comparative sign": "=", "Assay result": 32.5}
{"Binder": "YHSRRHPLALGFKYV", "Comparative sign": "=", "Assay result": 14.5}
{"Binder": "FVLRYYILIPHEQWD", "Comparative sign": "=", "Assay result": 13.2}
{"Binder": "NIKVLLNPKLGKPVK", "Comparative sign": "≤", "Assay result": 0}
{"Binder": "RLSRLLLSLPPESFT", "Comparative sign": "=", "Assay result": 6.5}
{"Binder": "APKHAPPPVPNETDN", "Comparative sign": "=", "Assay result": 691}
{"Binder": "IAPIPMPKPNPTHIS", "Comparative sign": "=", "Assay result": 0.5}

meta.source: the supplement of paper PMC4466140
